- testDescription: Stability of the compound in stimulated […] fluid at pH 1.2 measured after 12 hrs
- Assay type: ADME
- conditionParameters: simulated gi fluid, pH 1.2, 12 h
# label = YES if Stability >= 60% else NO

Some entries whose results are on file:
{"compound": "CC(C)C[C@H](NC(=O)CNC(=O)c1cc(Cl)ccc1Cl)B(O)O", "class": "YES"}
{"compound": "CC(C)C[C@H](NC(=O)CNC(=O)c1cc(Cl)ccc1Cl)B1OC2C3OC(c4ccccc43)C2O1 (some centres undefined)", "class": "NO"}
{"compound": "CC(C)C[C@H](NC(=O)CNC(=O)c1cc(Cl)ccc1Cl)B1OC2(C)CCC(C(=O)O)CC2(C)O1 (some centres undefined)", "class": "YES"}
{"compound": "CC(C)C[C@H](NC(=O)CNC(=O)c1cc(Cl)ccc1Cl)B1OC2C3OC(C4C(=O)NC(=O)C34)C2(C)O1 (some centres undefined)", "class": "YES"}
{"compound": "CC(C)C[C@H](NC(=O)CNC(=O)c1cc(Cl)ccc1Cl)B1OC2C3CC(C(=O)O)C(O3)C2O1 (some centres undefined)", "class": "YES"}

Okay, now this compound:
Does Stability meet or surpass 60% for CC(C)C[C@H](NC(=O)CNC(=O)c1cc(Cl)ccc1Cl)B1OC2(C)CC3C(=O)NC(=O)C3CC2(C)O1 (some centres undefined) ? NO

----------
- testDescription: Half life in dog liver microsomes at 1 uM incubated for 2 to 60 mins in presence of NADPH by LC-MS/MS analysis
- Format: ADME, Canis lupus familiaris, Microsome
- conditionParameters: time 2-60 min
metricName: half-life at 1 µM (h)
One number for each entry, in h.

{"molecule": "CC(C)C[C@H](NC(=O)C(CC1CC1)NC(=O)c1cc(C(F)(F)F)ccc1C(F)(F)F)B1OC2C3OC(CC3C(=O)O)C2(C)O1 (some centres not stated)", "unitName": "h", "value": 1.22}

Proceeding to the next molecule to report its half-life at 1 µM.
Given the entry CC(C)C[C@H](NC(=O)C(NC(=O)c1cc(C(F)(F)F)ccc1C(F)(F)F)C1CC1)B1OC2C3OC(CC3C(=O)O)C2(C)O1 (some centres not stated) , report its measured half-life at 1 µM. 1.41

----------
- testDescription: Stability of the compound in stimulated […] fluid at pH 6.8 measured after 8 hrs
- Assay type: ADME
- conditionParameters: simulated intestinal fluid, read-out: Stability
metricName: remaining at 8 h (%)
Numbers only, in %.

{"compound": "CC(C)C[C@H](NC(=O)CNC(=O)c1cc(Cl)ccc1Cl)B1OC2(C)CC3C(=O)NC(=O)C3CC2(C)O1 (some centres not stated)", "metricName": "remaining at 8 h", "value": 6.91}
{"compound": "CC(C)C[C@H](NC(=O)CNC(=O)c1cc(Cl)ccc1Cl)B1OC2C3OC(C4C(=O)NC(=O)C34)C2(C)O1 (some centres not stated)", "metricName": "remaining at 8 h", "value": 13.5}

List reported remaining at 8 h for each of these compounds:
1. CC(C)C[C@H](NC(=O)CNC(=O)c1cc(Cl)ccc1Cl)B1OC2C3OC(c4ccccc43)C2O1 (some centres not stated)
2. CC(C)C[C@H](NC(=O)C(NC(=O)c1cc(C(F)(F)F)ccc1C(F)(F)F)C1CC1)B1OC2C3OC(CC3C(=O)O)C2(C)O1 (some centres not stated)

1.35
3.93

List reported remaining at 8 h for each of these compounds:
1. CC(C)C[C@H](NC(=O)CNC(=O)c1cc(Cl)ccc1Cl)B(O)O
2. CC(C)C[C@H](NC(=O)CNC(=O)c1cc(Cl)ccc1Cl)B1OC2C3CC(C(=O)O)C(O3)C2O1 (some centres not stated)
3. CC(C)C[C@H](NC(=O)C(CC1CC1)NC(=O)c1cc(C(F)(F)F)ccc1C(F)(F)F)B1OC2C3OC(CC3C(=O)O)C2(C)O1 (some centres not stated)

100
19.6
5.24

----------
Would you kindly list Stability for each of these compounds?
- testDescription: Stability of the compound in stimulated […] fluid at pH 1.2 measured after 8 hrs
- Type: ADME
- conditionParameters: simulated gi fluid, pH 1.2, 8 h
One number for each entry, in %.

These solved cases illustrate the format of a correct answer.
{"compound": "CC(C)C[C@H](NC(=O)C(NC(=O)c1cc(C(F)(F)F)ccc1C(F)(F)F)C1CC1)B1OC2C3OC(CC3C(=O)O)C2(C)O1 (stereo partly drawn)", "unitName": "%", "Stability": 58.67}
{"compound": "CC(C)C[C@H](NC(=O)CNC(=O)c1cc(Cl)ccc1Cl)B1OC2C3OC(CC3C(=O)O)C2(C)O1 (stereo partly drawn)", "unitName": "%", "Stability": 58.58}

Proceeding to the next compound to report its Stability.
Given the entry CC(C)C[C@H](NC(=O)C(CC1CC1)NC(=O)c1cc(C(F)(F)F)ccc1C(F)(F)F)B1OC2C3OC(CC3C(=O)O)C2(C)O1 (stereo partly drawn) , report its measured Stability. 58.68

----------
- system: 20S proteasome
- testDescription: Inhibition of human 20S proteasome chymotrypsin-like activity using Suc-Leu-Leu-Val-Tyr-AMC as fluorogenic peptide pre-incubated for 10 mins with compound followed by substrate addition for 60 mins by spectrofluorimetric analysis
metricName: IC50
A complete answer gives the number and then names the unit.

These solved cases illustrate the format of a correct answer.
{"compound": "COc1ccc(OC)c(C(=O)NCC(=O)N[C@@H](CC(C)C)B(O)O)c1", "value": "15.8 nM"}
{"compound": "CC(C)C[C@H](NC(=O)CNC(=O)c1cc(Cl)ccc1Cl)B1OC2(C)CCC(C(=O)O)CC2(C)O1 (stereo not given in full)", "value": "9.6 nM"}
{"compound": "CC(C)C[C@H](NC(=O)C1(NC(=O)c2cc(C(F)(F)F)ccc2C(F)(F)F)CC1)B(O)O", "value": "86.7 nM"}
{"compound": "CC(C)C[C@H](NC(=O)CNC(=O)c1cc(C(F)(F)F)ccc1C(F)(F)F)B(O)O", "value": "5.2 nM"}

Missing value: IC50, 20S proteasome, entry CC(C)C[C@H](NC(=O)C(NC(=O)c1cc(C(F)(F)F)ccc1C(F)(F)F)C1CC1)B(O)O (stereo not given in full) . Fill in? 5.6 nM

----------
- testDescription: Stability of the compound in stimulated […] fluid at pH 1.2 measured after 12 hrs
- Type: ADME
- conditionParameters: simulated gi fluid, pH 1.2, 12 h
metricName: Stability
A complete answer gives the number and then names the unit.

List reported Stability for each of these compounds:
1. CC(C)C[C@H](NC(=O)CNC(=O)c1cc(Cl)ccc1Cl)B1OC2C3OC(CC3C(=O)O)C2(C)O1 (stereo partly drawn)
2. CC(C)C[C@H](NC(=O)C(NC(=O)c1cc(C(F)(F)F)ccc1C(F)(F)F)C1CC1)B1OC2C3OC(CC3C(=O)O)C2(C)O1 (stereo partly drawn)
3. CC(C)C[C@H](NC(=O)C(CC1CC1)NC(=O)c1cc(C(F)(F)F)ccc1C(F)(F)F)B1OC2C3OC(CC3C(=O)O)C2(C)O1 (stereo partly drawn)

["58.21%", "58.73%", "59.68%"]
